The reported measurements were obtained from ChEMBL document CHEMBL3286253.

Assay: Volume of distribution at steady state in Sprague-Dawley rat at 2 mg/kg, iv administered as cassette dosing
Type: ADME, organism-based
Set-up: dose 2 mg/kg, route intravenous
Conditions: in vivo, read-out: Vdss
recorded metric: Vd (L/kg)
Numbers only, in L/kg.

Go through the list and state Vd for each entry.
1. C=C[C@]1(C)C[C@@H](OC(=O)CSc2cncc(NC(=O)CN3CCC(O)CC3)c2)[C@]2(C)[C@H](C)CC[C@]3(CCC(=O)[C@H]32)[C@@H](C)[C@@H]1O
2. C=C[C@]1(C)C[C@@H](OC(=O)CSc2cncc(NC(=O)[C@@H](N)CC(C)C)c2)[C@]2(C)[C@H](C)CC[C@]3(CCC(=O)[C@H]32)[C@@H](C)[C@@H]1O

Resp:
1. 1.9
2. 10.3

Go through the list and state Vd for each entry.
1. C=C[C@]1(C)C[C@@H](OC(=O)CSc2cncc(NC(=O)CN)c2)[C@]2(C)[C@H](C)CC[C@]3(CCC(=O)[C@H]32)[C@@H](C)[C@@H]1O
2. C=C[C@]1(C)C[C@@H](OC(=O)CSc2cncc(NC(=O)CN3CCCC(O)C3)c2)[C@]2(C)[C@H](C)CC[C@]3(CCC(=O)[C@H]32)[C@@H](C)[C@@H]1O (stereo not given in full)
3. C=C[C@]1(C)C[C@@H](OC(=O)CS[C@@H]2CC[C@@H](N)C[C@H]2O)[C@]2(C)[C@H](C)CC[C@]3(CCC(=O)[C@H]32)[C@@H](C)[C@@H]1O [LEFAMULIN]

Resp:
1. 13.8
2. 1.9
3. 27.6
